Test system: 494315-158-R-J1-PDC complex spheroid growth, percent test/control;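 note: compound exposure lasted seven days after spheroids formed for three days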
Assay: Anticancer human tumor 494315-158-R-J1-PDC patient-derived soft tissue sarcoma cell line growth inhibition [Asc]
Conditions: second compound 0.0316 µM; first compound 3.16 µM; stronger effect = lower value
measurement-label: viability, T/C (%)

{"columns": ["compound", "measurement-label", "units", "reported-value"],
 "data": [
  ["C#Cc1c(F)ccc2cc(O)cc(-c3ncc4c(N5CC6CCC(C5)N6)nc(OCC56CCCN5CC(F)C6)nc4c3F)c12 (centres undefined) + CNC(C)C(=O)NC1CN(S(=O)(=O)c2cccc(S(=O)(=O)N3CCC4CCC(C(=O)NC(c5ccccc5)c5ccccc5)N4C(=O)C(NC(=O)C(C)NC)C3)c2)CCC2CCC(C(=O)NC(c3ccccc3)c3ccccc3)N2C1=O", "viability, T/C", "%", 76.9],
  ["C=C(F)C(=O)N1CCN(c2nc(OCC3CCCN3C)nc3c2CCN(c2cccc4cccc(Cl)c24)C3)CC1CC#N (centres undefined) + CNC(C)C(=O)NC1CN(S(=O)(=O)c2cccc(S(=O)(=O)N3CCC4CCC(C(=O)NC(c5ccccc5)c5ccccc5)N4C(=O)C(NC(=O)C(C)NC)C3)c2)CCC2CCC(C(=O)NC(c3ccccc3)c3ccccc3)N2C1=O", "viability, T/C", "%", 20.6],
  ["O=C(c1cc(Cc2n[nH]c(=O)c3ccccc23)ccc1F)N1CCN(C(=O)C2CC2)CC1 + CNC(C)C(=O)NC1CN(S(=O)(=O)c2cccc(S(=O)(=O)N3CCC4CCC(C(=O)NC(c5ccccc5)c5ccccc5)N4C(=O)C(NC(=O)C(C)NC)C3)c2)CCC2CCC(C(=O)NC(c3ccccc3)c3ccccc3)N2C1=O", "viability, T/C", "%", 41.9],
  ["C=CC(=O)N1CCN(c2nc(=O)n(-c3c(C)ccnc3C(C)C)c3nc(-c4c(O)cccc4F)c(F)cc23)C(C)C1 (centres undefined) + CNC(C)C(=O)NC1CN(S(=O)(=O)c2cccc(S(=O)(=O)N3CCC4CCC(C(=O)NC(c5ccccc5)c5ccccc5)N4C(=O)C(NC(=O)C(C)NC)C3)c2)CCC2CCC(C(=O)NC(c3ccccc3)c3ccccc3)N2C1=O", "viability, T/C", "%", 59.5]
]}
